- Test Name: chemical genetic growth profiling, strain panel (AID 1159580);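 further: tested at 20 µM; growth read once vehicle control cultures reached saturation at 30 °C; lower values mean less growth of the strain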
- Measurement Context: S. cerevisiae deletion strains, growth OD, locus YOL006C, strain TOP1
The campaign covered roughly 5,500 compounds. About 2,000 (36%) were called active. Roughly 18% stayed inconclusive and do not appear here. No stated cut-off is given here; in the data, active means normalized growth mostly below about 0.91 (no sharp cut-off); inconclusive means no clear call, values can overlap the other calls; inactive means mostly above about 0.92. This is one part of the list.
API: response.call in active, inactive

Solved cases (3 shown):
(Q) Tell me the recorded outcome of this test for Cn1c(Sc2ccc(C(F)(F)F)cc2[N+](=O)[O-])nnc1C(F)(F)F .
(A) inactive

(Q) Can you look up the reported call for CN1C(=O)CC[C@H]1c1cccnc1 for me?
(A) inactive

(Q) Hey, what did the test say about CC(=O)OC1CCC2(O)CC1(C)CCC1C2CC1(C)C (stereo unspecified) ?
(A) inactive

---
(Q) What did the test return for CC(C)OC(=O)Nc1cccc(Cl)c1 ?
(A) inactive

(Q) // param item: COP(=O)(NC(C)=O)SC (stereo unspecified) ; yields the recorded call
(A) inactive

(Q) Recorded test call requested for COc1cc(O)c2c(c1)C(=O)c1cc(C)cc(O)c1C2=O
(A) inactive

(Q) What outcome does the record of this test show for CNC(C)(C)Cc1ccccc1 ?
(A) inactive

(Q) What outcome does the record of this test show for NS(=O)(=O)c1cc2c(cc1Cl)NCNS2(=O)=O ?
(A) inactive

(Q) Kindly provide the recorded test outcome for the following compound: CNC(=O)Oc1ccccc1OC(C)C
(A) inactive

(Q) Recorded test outcome, item O=C(O)c1cc(=O)c2ccccc2[nH]1
(A) inactive

(Q) Which result was noted for this compound in the test: Oc1cccc2cccnc12
(A) active

* * *

- Test Name: chemical genetic growth profiling, strain panel (AID 1159580);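 further: tested at 20 µM; growth read once vehicle control cultures reached saturation at 30 °C; lower values mean less growth of the strain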
- Measurement Context: S. cerevisiae deletion strains, growth OD, locus YNL322C, strain KRE1
Screen size: about 5,500 compounds; about 2,000 (36%) were called active. Another 18% or so got no clear call; they are omitted. Cut-off read from the data, not from the text of the source: active = normalized growth mostly below about 0.91 (no sharp cut-off); inconclusive = no clear call, values can overlap the other calls; inactive = mostly above about 0.92. Some of the results follow.
Hi! Could you answer with just one of these? active, inactive

(Q) Per the records of this test, what outcome belongs to Cn1c(=O)c2c(ncn2C)n(C)c1=O ?
(A) inactive

(Q) Which result was noted for this molecule in the test: CCn1c(=O)[nH]c2cc(Cl)c(Cl)cc21
(A) inactive

(Q) Test call, this molecule: Cc1c(-c2csc(-c3ccc(Cl)cc3)n2)sc2ccc(Cl)cc12
(A) inactive

(Q) Hi, do you know how COC(=O)[C@H](NC(=O)c1cc(-c2ccccc2)nc2ccccc12)c1ccccc1 came out in this test?
(A) inactive

---
(Q) Assay outcome for CCCc1ccc(-c2nc(-c3ccc(C)cc3)no2)cc1 : what was it?
(A) inactive

(Q) For this molecule, state the assay outcome: CCCCC/C=C\CC(O)/C=C/c1cccc(CC(O)CCCCO)n1 (centres undefined)
(A) inactive

(Q) Which outcome did this test record for the molecule O=c1onc2n1-c1cc(Br)ccc1OC2 ?
(A) inactive

(Q) Identify the outcome logged in this assay for the molecule shown: COC(=O)c1cc(OC)c(=O)c2c(OC)c(OC)ccc2c1
(A) inactive

(Q) For O=C(Cc1ccc(Cl)c(Cl)c1)N1CCCCC1CN1CCCC1 (centres undefined) , which call appears in the assay record?
(A) inactive

(Q) Test call for this molecule, please: CC(=O)Nc1c(I)cc(I)c(C(=O)O)c1I
(A) inactive

(Q) Identify the outcome logged in this assay for the molecule shown: CC(=N/O)/C(C)=C/c1ccc(Cl)cc1
(A) active

(Q) What outcome does the record of this test show for C#CCn1c(=O)c2c(ncn2C)n(C)c1=O ?
(A) inactive

(Q) Entry CCOC(=O)c1ccc(NC(=S)N2CCOCC2)cc1 : call = ?
(A) inactive

Taken from PubChem BioAssay AID1159580.
